Data provenance: patent US20050267024A1

target.or.system: T1, VEGFR-2-Fc (human, UniProt P35968 20-322)
T1 construct: domain: first 3 Ig domains; used as conditioned supernatant of 293T cells; also called VEGFR-2-Fc fusion protein; not shown: Fc fragment of the pIg vector
T1 sequence (P35968 20-322): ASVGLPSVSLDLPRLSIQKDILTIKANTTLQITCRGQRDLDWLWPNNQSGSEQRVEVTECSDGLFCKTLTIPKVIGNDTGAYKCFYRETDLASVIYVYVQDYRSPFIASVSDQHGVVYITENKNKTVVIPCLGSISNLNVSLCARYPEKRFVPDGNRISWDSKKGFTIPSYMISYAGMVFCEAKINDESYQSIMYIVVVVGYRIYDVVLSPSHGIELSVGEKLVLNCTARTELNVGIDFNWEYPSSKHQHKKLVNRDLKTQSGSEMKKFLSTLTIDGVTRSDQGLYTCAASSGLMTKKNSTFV
protocol.notes: receptor-Fc IP
measurement.name: binding result

Item under review: 22-1 (ligand) AHYNTEILKSIDNEWRKTQCMPREVCIDVGKEFGVATNTFFKPPCVSVYRCGGCCNDEGLECVPTEESNITMQIMRIKPHQGQHIGEMSFLQHNKCECRPKKD . Reported binding result?
no binding

One more binder: 12-13 (ligand) GQNHHEVVKFMDVYQRSYCHPIETLVDIFQEFGVATNTFFKPPCVSVYRCGGCCNDEGLECVPTEESNITMQIMRITVPLSQGPKPVTISFANHTSCRCMSKLN
no binding
